Measured Ki (human thrombin (Homo sapiens, UniProt P00734))

Consider the reported Ki for these compounds:
{"columns": ["compound", "Ki"],
 "data": [
  ["CC1(C)[C@@H]2C[C@H]3OB([C@H](CCCCN)NC(=O)Cn4nc(COCc5ccccc5)nc4Cc4ccccc4)O[C@@]3(C)[C@H]1C2", "< 500 nM"],
  ["CC1(C)C2CC3OB([C@H](CCCNC(=N)N)NC(=O)Cn4nc(-c5cccc([N+](=O)[O-])c5)nc4Cc4ccccc4)OC3(C)C1C2 (single isomer, unassigned)", "< 500 nM"]
]}

Could you now consider this next compound?
Data request: Find the measured Ki: item CC1(C)C2CC3OB([C@H](CCCNC(=N)N)NC(=O)Cn4nc(Cc5ccccc5)nc4Cc4ccccc4)OC3(C)C1C2 (single isomer, unassigned) , target or system human thrombin (Homo sapiens, UniProt P00734).
Data returned: < 500 nM
